Provenance of the data: patent US20130096104A1

# testedSystem: TYK2 kinase domain (Homo sapiens, UniProt P29597)
# Construct: The activity of the isolated JAK1, JAK2 or TYK2 kinase domain was measured
# assayInfo: TYK2 inhibition assay (Example A, Caliper LabChip peptide phosphorylation)
# statedConditions: isolated kinase domain, 1 nM TYK2, 25 uM ATP, Morrison tight binding model
Labelling field: enter rule met if recorded Ki is less than 60 nM. Enter rule not met if it equals or exceeds that cut-off.

[[record]]
compound = "Cc1ccc(Nc2ncnc3nc(-c4c(Cl)cccc4Cl)[nH]c23)nc1 [Example 179]"
grouplabel = "rule met"

[[record]]
compound = "O=C(Nc1nccc2nc(-c3c(Cl)cccc3Cl)[nH]c12)c1cncs1 [Example 7]"
grouplabel = "rule met"

[[record]]
compound = "Clc1cccc(Cl)c1-c1nc2ccnc(Nc3cn[nH]c3)c2[nH]1 [Example 3]"
grouplabel = "rule met"

[[record]]
compound = "COC(=O)Nc1ncnc2nc(-c3c(F)cccc3Cl)[nH]c12 [Example 208]"
grouplabel = "rule met"

[[record]]
compound = "O=C(Nc1ncnc2c1nc(-c1c(Cl)cccc1Cl)n2CCO)C1CC1 [Example 439]"
grouplabel = "rule not met"


----------
# testedSystem: TYK2 kinase domain (Homo sapiens, UniProt P29597)
# Construct: The activity of the isolated JAK1, JAK2 or TYK2 kinase domain was measured
# Sequence (P29597 897-1176 limits assumed): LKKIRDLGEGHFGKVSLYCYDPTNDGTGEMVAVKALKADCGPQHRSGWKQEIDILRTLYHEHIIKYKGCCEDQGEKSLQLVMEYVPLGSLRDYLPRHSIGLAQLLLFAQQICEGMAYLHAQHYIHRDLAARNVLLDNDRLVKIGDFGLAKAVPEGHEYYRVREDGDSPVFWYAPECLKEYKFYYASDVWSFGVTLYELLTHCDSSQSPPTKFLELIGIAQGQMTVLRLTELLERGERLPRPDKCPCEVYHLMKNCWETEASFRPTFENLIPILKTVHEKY
# assayInfo: TYK2 inhibition assay (Example A, Caliper LabChip peptide phosphorylation)
# statedConditions: isolated kinase domain, 1 nM TYK2, 25 uM ATP, Morrison tight binding model
pKi: −log10 of the molar value.
Quick rule: pKi of at least 8 means true, below that means false.

[[record]]
compound = "N#Cc1cc(Cl)c(-c2nc3ccnc(NC(=O)C4CC4)c3[nH]2)c(Cl)c1 [Example 10]"
grouplabel = "true"

[[record]]
compound = "Cn1c(-c2c(Cl)cccc2Cl)nc2ccnc(NC(=O)C3CC3)c21 [Example 13]"
grouplabel = "false"

[[record]]
compound = "CNC(=O)Nc1ncnc2nc(-c3c(Cl)cccc3Cl)[nH]c12 [Example 171]"
grouplabel = "false"

[[record]]
compound = "Clc1cccc(Cl)c1-c1nc2c(Nc3ccncn3)ncnc2[nH]1 [Example 14]"
grouplabel = "true"

[[record]]
compound = "CNC(=O)Nc1nccc2nc(-c3c(Cl)cccc3Cl)[nH]c12 [Example 11]"
grouplabel = "true"

[[record]]
compound = "Cn1c(-c2c(Cl)cccc2Cl)nc2c(Nc3ccncc3)ncnc21 [Example 215]"
grouplabel = "false"

